Values compiled from PubChem BioAssay (NCI).

Tested on: A549/ATCC NSCLC
Assay: NCI-60 one-dose screen, 48 h (100 = growth as untreated, 0 = no growth, -100 = all killed)
Conditions: 10 µM unless noted
Protocol: Growth inhibition of the A549/ATCC human Non-Small Cell Lung tumor cell line is measured as a screen for anti-cancer activity. Cells are grown in 96 well plates and exposed to the test compound for 48 hours. Compounds are tested at a single concentration, which is 10^-5 M for most compounds. The reported endpoint is percent growth (GI% or GIPRCNT), where numbers from 0 - 100% represent growth inhibition, and numbers from -100% - 0 represent cell death. […]
About 83,000 compounds went through this panel and 20% of them were active in at least one assay; those are over-represented in the sample as a whole.
Given measured growth, output yes (1) if it is greater than or equal to 70% and no (0) if not.

compound	group_label
C#CC#CC#CC#CC#CC#CC#CC#CC[C@H]1OC[C@@H](COC(=O)O[C@@H](C(=O)O[C@H]2C[C@@]3(O)[C@@H](OC(=O)c4ccccc4)[C@@H]4[C@]5(OC(C)=O)CO[C@@H]5C[C@H](O)[C@@]4(C)C(=O)[C@H](OC(C)=O)C(=C2C)C3(C)C)[C@@H](NC(=O)c2ccccc2)c2ccccc2)O1	no (0)
CCOC(=O)c1ccc2c(c1)c1c(C)c3ccncc3c(C)c1n2C	no (0)
Cc1nc2sc(C(=O)Nc3cccc(Cl)c3)c(N)c2cc1C(O)c1ccccc1 (stereo not given)	no (0)
Cc1ccc(-c2csc(NC(=O)N3CCN(c4cc5c(cc4F)c(=O)c(C(=O)O)cn5C4CC4)CC3)n2)cc1	no (0)
N#Cc1nc(-c2ccc(F)cc2)oc1S(=O)(=O)N1CCN(c2ccc(F)cc2)CC1	yes (1)
O=C(Nc1ncc(Cc2ccccc2Cl)s1)c1cccs1	no (0)
CN(C)c1ccc(/C=C2/C=C(c3ccccc3)OC2=O)cc1	yes (1)
C#CCOc1cccc(-c2ncc3cc(NC(=O)CCl)ccc3n2)c1	yes (1)
COc1cc2oc(-c3cccc(NC(=O)c4ccc5c(c4)OCO5)c3)cc(=O)c2c(OC)c1OC	no (0)
CN(C)c1ccc(/C=C/C(=O)c2ccccc2)cc1	no (0)

---

Tested on: HCT-116 colon
Assay: NCI-60 one-dose screen, 48 h (100 = growth as untreated, 0 = no growth, -100 = all killed)
Details: 10 µM unless noted
The panel holds about 83,000 compounds, 20% with a hit somewhere; the sample as a whole holds those more often.
reported_property: growth (%)

> print(dat)
                                   compound  assayed.target  recorded.result
1   Cc1ccc(-c2nc(C#N)c(S(=O)(=O)NCCO)o2)cc1   HCT-116 colon             51.6
2         O=C(Nc1ncc(Cc2ccccc2Cl)s1)c1cccs1   HCT-116 colon             58.1
3  CCOC(=O)C1CCN(c2ccc(N3C[C@@H](CNCc4ccc(C(=N)N)cc4)OC3=O)cc2)CC1   HCT-116 colon             98.9
4  CCN1C(=S)N(CC)C2C1NC(=S)N2/N=C/C=C/c1ccccc1OC (stereo not given)   HCT-116 colon             13.6
5  O=C(N=Nc1c(O)[nH]c2ccccc12)Nc1ccc(Cl)cc1   HCT-116 colon             94.4
